# Tested on: DU-145 prostate
# Assay Notes: NCI-60 one-dose screen, 48 h (100 = growth as untreated, 0 = no growth, -100 = all killed)
# Condition Context: 10 µM
About 83,000 compounds went through this panel and 20% of them were active in at least one assay; those are over-represented in the sample as a whole.
Output t for growth not less than 20%; output f otherwise.

{"Compound": "COCCOCCOCCOc1ccc(-n2cc(CCCN(CCNc3ccnc4cc(Cl)ccc34)C(=O)CCC(=O)O[C@@H]3O[C@@H]4OC5(C)CC[C@H]6[C@H](C)CC[C@@H]([C@H]3C)[C@@]46OO5)nn2)cc1", "Label Class": "t"}
{"Compound": "C[C@H]1[C@H](OC(=O)CCC(=O)Nc2cnccn2)O[C@@H]2OC3(C)CC[C@H]4[C@H](C)CC[C@@H]1[C@@]24OO3", "Label Class": "t"}
{"Compound": "O=C(/C=C/c1ccccc1Cl)c1nc2ccccc2n1Cc1ccc(F)cc1", "Label Class": "f"}
{"Compound": "C[C@H]1[C@H](OC(=O)CCC(=O)N(CCCc2cn(-c3ccc(C#N)cc3)nn2)CCNc2ccnc3cc(Cl)ccc23)O[C@@H]2OC3(C)CC[C@H]4[C@H](C)CC[C@@H]1[C@@]24OO3", "Label Class": "t"}
{"Compound": "CN(C)CCc1cn(C2CCC2)c2cccc(O)c12", "Label Class": "t"}
{"Compound": "O=C(NCCCCC(c1ccc(F)cc1)c1ccc(F)cc1)Nc1ccc([N+](=O)[O-])c(C(F)(F)F)c1", "Label Class": "t"}
{"Compound": "CC12OOC(C)(OO1)C2CCC(=O)NCCCNc1ccnc2cc(Cl)ccc12 (stereo not drawn)", "Label Class": "f"}

Moving on to another compound below.
query: Reported growth reaches at least 20% for C=CC[Se]C(=O)c1ccc(C(=O)[Se]CC=C)s1 ?
result: f

###

# Tested on: HCT-15 colon
# Assay Notes: NCI-60 one-dose screen, 48 h (100 = growth as untreated, 0 = no growth, -100 = all killed)
# Condition Context: 10 µM
Compounds without any hit were thinned out: in the full panel of roughly 83,000, 20% have a hit.
Metric Name: growth (%)
// units = %; emit number, no label

{"Compound": "O=C([Se]C1C=CCCC1)c1ccc(C(=O)[Se]C2C=CCCC2)s1 (stereo not drawn)", "growth, %": -25.1}

Shifting focus to the compound that follows.
query: What value of measured growth is listed for O=C(NC([Se])=NC1CCCCC1)c1ccccc1 ?
result: 44

###

# Tested on: SF-295 CNS
# Assay Notes: NCI-60 one-dose screen, 48 h (100 = growth as untreated, 0 = no growth, -100 = all killed)
# Condition Context: 10 µM
About 83,000 compounds went through this panel and 20% of them were active in at least one assay; those are over-represented in the sample as a whole.
Output 1 (yes) for growth not less than -40%; output 0 (no) otherwise.

{"Structure Smiles String": "COc1cc2cc(C(=O)N3C[C@@H](CCl)c4c3cc(OC(=O)N3CCN(C)[C@@H]5CSSC[C@H]53)c3ccccc43)[nH]c2c(OC)c1OC", "Target": "SF-295 CNS", "Label Class": "0 (no)"}
{"Structure Smiles String": "CC[C@]12C=CCN3CC[C@@]4(c5ccc(OC)cc5N(C)[C@H]4[C@@](O)(C(=O)OC)[C@@H]1OC(=O)CCC[P+](c1ccc(C)cc1)(c1ccc(C)cc1)c1ccc(C)cc1)[C@@H]32", "Target": "SF-295 CNS", "Label Class": "0 (no)"}
{"Structure Smiles String": "COC(=O)c1ccc(-n2cc(CCCN(CCNc3ccnc4cc(Cl)ccc34)C(=O)CCC(=O)O[C@@H]3O[C@@H]4OC5(C)CC[C@H]6[C@H](C)CC[C@@H]([C@H]3C)[C@@]46OO5)nn2)cc1", "Target": "SF-295 CNS", "Label Class": "1 (yes)"}
{"Structure Smiles String": "C[C@H]1[C@H](OC(=O)CCC(=O)N(CCCc2cn(-c3ccc([N+](=O)[O-])cc3)nn2)CCNc2ccnc3cc(Cl)ccc23)O[C@@H]2OC3(C)CC[C@H]4[C@H](C)CC[C@@H]1[C@@]24OO3", "Target": "SF-295 CNS", "Label Class": "1 (yes)"}
{"Structure Smiles String": "COc1ccc2cc([C@H](C)C(=O)[Se]CCC#N)ccc2c1", "Target": "SF-295 CNS", "Label Class": "0 (no)"}

query: Reported growth reaches at least -40% for COc1cc(OC)c(S(=O)(=O)N(CCCl)CCCl)cc1C(=O)/C=C/c1ccc(C)cc1 ?
result: 1 (yes)
